The molecules listed here are annotated with their %max.
Biological target: Estrogen receptor (Homo sapiens) (UniProt P03372)
Sequence (whole entry): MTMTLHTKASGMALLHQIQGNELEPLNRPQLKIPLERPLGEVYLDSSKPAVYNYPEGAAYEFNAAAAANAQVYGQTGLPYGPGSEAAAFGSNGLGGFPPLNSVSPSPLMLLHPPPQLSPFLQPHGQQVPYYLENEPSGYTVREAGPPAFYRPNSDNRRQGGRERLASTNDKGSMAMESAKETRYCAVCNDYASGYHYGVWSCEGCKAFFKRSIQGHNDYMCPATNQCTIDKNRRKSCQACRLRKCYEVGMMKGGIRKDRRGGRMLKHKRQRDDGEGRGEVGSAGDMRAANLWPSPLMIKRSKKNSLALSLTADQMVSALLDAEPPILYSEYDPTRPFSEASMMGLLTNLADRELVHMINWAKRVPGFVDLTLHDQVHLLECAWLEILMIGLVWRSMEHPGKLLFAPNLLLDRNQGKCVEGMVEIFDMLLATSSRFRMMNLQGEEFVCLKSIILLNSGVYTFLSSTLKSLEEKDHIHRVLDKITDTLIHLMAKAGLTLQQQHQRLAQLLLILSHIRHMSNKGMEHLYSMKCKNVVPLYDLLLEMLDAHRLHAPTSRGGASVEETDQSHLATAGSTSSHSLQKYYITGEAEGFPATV
Assay: Induction of ERalpha degradation in human MCF7 cells assessed as maximum degradation by immunofluorescence assay relative to control
Type: cell-based
Respond with the bare value in %.

Illustrative cases are given below, each with its answer.
C[C@@H]1Cc2c([nH]c3ccccc23)[C@@H](c2c(F)cc(OCCN3CC(CF)C3)cc2F)N1C(=O)CC1CC1 : 95
C[C@@H]1Cc2c([nH]c3ccccc23)[C@@H](c2c(F)cc(OCCN3CC(CF)C3)cc2F)N1C(=O)C(C)(C)F : 94
C[C@@H]1Cc2c([nH]c3ccccc23)[C@@H](c2c(F)cc(OCCN3CC(CF)C3)cc2F)N1C(=O)C1CC1 : 89
C[C@@H]1Cc2c([nH]c3ccccc23)[C@@H](c2c(F)cc(OCCN3CC(CF)C3)cc2F)N1S(C)(=O)=O : 93
CC(C)C(=O)N1[C@H](c2c(F)cc(OCCN3CC(CF)C3)cc2F)c2[nH]c3ccccc3c2C[C@H]1C : 95
C[C@@H]1Cc2c([nH]c3ccccc23)[C@@H](c2c(F)cc(OCCN3CC(CF)C3)cc2F)N1C(=O)[C@@H](C)CF : 98

# context switch: different molecule, same %max
Problem: Hi! What's the reported %max for `C[C@@H]1Cc2c([nH]c3ccccc23)[C@@H](c2c(F)cc(OC3CN(CCCF)C3)cc2F)N1C(=O)C(C)(C)F` on Estrogen receptor (Homo sapiens) (UniProt P03372)?
Result: 100

---

Target: Estrogen receptor (Homo sapiens)
Assay: Induction of ERalpha degradation in human MCF7 cells by immunofluorescence assay
Format: cell-based
The molecules listed here are annotated with their DC50.
Respond with the bare value in nM.

C[C@H](CF)C(=O)N1[C@H](c2c(F)cc(OCCN3CC(CF)C3)cc2F)c2[nH]c3ccccc3c2C[C@H]1C : 0.4
C[C@@H]1Cc2c([nH]c3ccccc23)[C@@H](c2ccc(OCCN3CC(CF)C3)cc2)N1S(C)(=O)=O : 0.18
C[C@@H]1Cc2c([nH]c3ccccc23)[C@@H](c2c(F)cc(OC3CN(CCCF)C3)cc2F)N1C(=O)C(C)(C)F : 0.42
C[C@@H]1Cc2c([nH]c3ccccc23)[C@@H](c2ccc(OCCN3CC(CF)C3)cc2F)N1S(C)(=O)=O : 0.19
C[C@@H]1Cc2c([nH]c3ccccc23)[C@@H](c2c(F)cc(OC3CN(CCCF)C3)cc2F)N1C(=O)C1(F)CC1 : 0.32
C[C@@H]1Cc2c([nH]c3ccccc23)[C@@H](c2c(F)cc(OC3CN(CCCF)C3)cc2F)N1C(=O)C1(F)CCC1 : 1.2

# context switch: different molecule, same DC50
Problem: Dear colleague, I am looking for the recorded DC50 of the following molecule: `C[C@@H]1Cc2c([nH]c3ccccc23)[C@@H](c2c(F)cc(OCCN3CC(CF)C3)cc2F)N1C(=O)[C@@H](C)CF`
Result: 0.34

---

Assay: Half life in rat
Format: ADME
Details: in vivo
The molecules listed here are annotated with their half-life.
Respond with the bare value in h.

Illustrative cases are given below, each with its answer.
C[C@@H]1Cc2c([nH]c3ccccc23)[C@@H](c2c(F)cc(OCCN3CC(CF)C3)cc2F)N1S(C)(=O)=O : 7
C[C@@H]1Cc2c([nH]c3ccccc23)[C@@H](c2ccc(OCCN3CC(CF)C3)cc2)N1S(C)(=O)=O : 13
C[C@@H]1Cc2c([nH]c3ccccc23)[C@@H](c2ccc(OCCN3CC(CF)C3)cc2F)N1S(C)(=O)=O : 11

# context switch: different molecule, same half-life
Problem: Dear colleague, I am looking for the recorded half-life of the following molecule: `C[C@@H]1Cc2c([nH]c3ccccc23)[C@@H](c2c(F)cc(OCCN3CC(CF)C3)cc2F)N1C(=O)C(C)(C)F`
Result: 3.1

---

The compounds listed here are annotated with their %max.
Molecular target: Estrogen receptor (Homo sapiens)
Sequence (whole entry): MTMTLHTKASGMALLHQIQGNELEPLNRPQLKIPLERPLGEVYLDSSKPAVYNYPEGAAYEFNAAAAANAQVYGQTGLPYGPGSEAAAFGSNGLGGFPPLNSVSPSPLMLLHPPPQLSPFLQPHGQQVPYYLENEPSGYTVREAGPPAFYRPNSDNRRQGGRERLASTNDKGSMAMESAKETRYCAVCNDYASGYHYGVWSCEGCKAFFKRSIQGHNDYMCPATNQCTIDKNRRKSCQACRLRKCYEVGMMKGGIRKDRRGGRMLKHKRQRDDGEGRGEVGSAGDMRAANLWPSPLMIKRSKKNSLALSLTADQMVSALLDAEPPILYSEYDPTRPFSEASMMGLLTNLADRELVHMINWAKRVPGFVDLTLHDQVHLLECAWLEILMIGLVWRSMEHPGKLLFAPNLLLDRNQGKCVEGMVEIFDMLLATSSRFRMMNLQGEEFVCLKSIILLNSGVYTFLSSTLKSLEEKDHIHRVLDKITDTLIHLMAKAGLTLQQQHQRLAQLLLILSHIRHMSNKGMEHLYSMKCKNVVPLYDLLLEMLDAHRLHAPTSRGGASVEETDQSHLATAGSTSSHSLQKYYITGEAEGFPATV
Assay: Induction of ERalpha degradation in human MCF7 cells assessed as maximum degradation by immunofluorescence assay relative to control
Assay type: cell-based
Respond with the bare value in %.

Illustrative cases are given below, each with its answer.
C[C@@H]1Cc2c([nH]c3ccccc23)[C@@H](c2c(F)cc(OC3CN(CCCF)C3)cc2F)N1CC(C)(C)F : 100
C[C@@H]1Cc2c([nH]c3ccccc23)[C@@H](c2c(F)cc(OCCN3CC(CF)C3)cc2F)N1C(=O)C(C)(C)C : 90
C[C@@H]1Cc2c([nH]c3ccccc23)[C@@H](c2c(F)cc(OCCN3CC(CF)C3)cc2F)N1C(=O)C1COC1 : 92
C[C@@H]1Cc2c([nH]c3ccccc23)[C@@H](c2c(F)cc(OCCN3CC(CF)C3)cc2F)N1C(=O)C(C)(F)F : 95
CC(=O)N1[C@H](c2c(F)cc(OCCN3CC(CF)C3)cc2F)c2[nH]c3ccccc3c2C[C@H]1C : 91
C[C@@H]1Cc2c([nH]c3ccccc23)[C@@H](c2ccc(OCCN3CC(CF)C3)cc2F)N1S(C)(=O)=O : 93
C[C@@H]1Cc2c([nH]c3ccccc23)[C@@H](c2ccc(OCCN3CC(CF)C3)cc2)N1S(C)(=O)=O : 93
C[C@H](CF)C(=O)N1[C@H](c2c(F)cc(OCCN3CC(CF)C3)cc2F)c2[nH]c3ccccc3c2C[C@H]1C : 96

Problem: Dear colleague, I am looking for the recorded %max of the following compound: CC(CO)C(=O)N1[C@H](c2c(F)cc(OCCN3CC(CF)C3)cc2F)c2[nH]c3ccccc3c2C[C@H]1C (stereo partly specified)
Result: 91

Problem: // query: `C[C@@H]1Cc2c([nH]c3ccccc23)[C@@H](c2c(F)cc(OC3CN(CCCF)C3)cc2F)N1C(=O)C1(F)CC1`
Result: 95

Problem: // query: `C[C@@H]1Cc2c([nH]c3ccccc23)[C@@H](c2c(F)cc(OC3CN(CCCF)C3)cc2F)N1C(=O)C1(F)CCC1`
Result: 96

---

Target: Estrogen receptor (Homo sapiens)
Sequence (P03372 whole entry): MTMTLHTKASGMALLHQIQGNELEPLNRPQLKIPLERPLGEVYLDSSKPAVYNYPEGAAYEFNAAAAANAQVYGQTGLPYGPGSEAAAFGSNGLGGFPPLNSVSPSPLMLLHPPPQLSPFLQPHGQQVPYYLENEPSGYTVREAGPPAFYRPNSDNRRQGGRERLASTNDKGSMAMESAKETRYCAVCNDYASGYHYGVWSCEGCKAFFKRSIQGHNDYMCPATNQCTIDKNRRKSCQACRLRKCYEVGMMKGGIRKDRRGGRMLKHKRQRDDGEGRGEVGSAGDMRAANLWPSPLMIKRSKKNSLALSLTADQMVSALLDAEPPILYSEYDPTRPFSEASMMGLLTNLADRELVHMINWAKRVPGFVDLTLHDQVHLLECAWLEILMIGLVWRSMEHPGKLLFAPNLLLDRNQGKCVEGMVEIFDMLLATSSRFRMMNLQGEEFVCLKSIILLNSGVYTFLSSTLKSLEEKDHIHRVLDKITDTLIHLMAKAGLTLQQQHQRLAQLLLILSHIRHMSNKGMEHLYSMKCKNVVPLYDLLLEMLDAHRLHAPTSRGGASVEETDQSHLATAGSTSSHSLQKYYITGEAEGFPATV
Test: Induction of ERalpha degradation in human MCF7 cells by immunofluorescence assay
Format: cell-based
quantity.measured: DC50 (nM)
Respond with the bare value in nM.

Illustrative cases are given below, each with its answer.
C[C@@H]1Cc2c([nH]c3ccccc23)[C@@H](c2c(F)cc(OCCN3CC(CF)C3)cc2F)N1C(=O)C(C)(C)C : 0.49
C[C@@H]1Cc2c([nH]c3ccccc23)[C@@H](c2c(F)cc(OCCN3CC(CF)C3)cc2F)N1C(=O)C1COC1 : 4

# context switch: different compound, same DC50
Problem: Hi! What's the reported DC50 for `C[C@@H]1Cc2c([nH]c3ccccc23)[C@@H](c2c(F)cc(OCCN3CC(CF)C3)cc2F)N1C(=O)C(C)(F)F` on Estrogen receptor (Homo sapiens)?
Result: 0.15
